All figures here come from ChEMBL document CHEMBL5346950.

Experiment: Bioavailability in Sprague-Dawley rat at 10 mg/kg, IG measured for 5760 mins by LC-MS/MS analysis
Format: ADME, organism-based
Details: in vivo, po
Readout kind: bioavailability
Don't forget the unit after the value.

input: Look at this compound and give its reported bioavailability. O=C(O)C1(c2ccc(-c3cc(Cl)cc(Cl)c3)c(F)c2)CC1
output: 53.7%

###

Assay: AUC (0 to infinity) in Sprague-Dawley rat at 2 mg/kg, iv measured for 5760 mins by LC-MS/MS analysis
Type: ADME, organism-based
Parameters: time 5760 min, dose 2 mg/kg, route iv
Settings: in vivo
Readout kind: AUC(0-inf) (ng·h/mL)
Number in ng·h/mL, nothing else.

input: Entry O=C(O)C1(c2ccc(-c3cc(Cl)cc(Cl)c3)c(F)c2)CC1 : reported AUC(0-inf) = ?
output: 654

###

Assay: Elimination phase half life in Sprague-Dawley rat at 2 mg/kg, iv measured for 5760 mins by LC-MS/MS analysis
Format: ADME, organism-based
Details: in vivo, read-out: beta t1/2 (converted)
Readout kind: half-life (h)
Entry rule: numbers only, all in h.

input: Request the reported half-life associated with O=C(O)C1(c2ccc(-c3cc(Cl)cc(Cl)c3)c(F)c2)CC1
output: 19.1

###

Assay: AUC (0 to t) in Sprague-Dawley rat at 10 mg/kg, IG measured for 5760 mins by LC-MS/MS analysis
Type: ADME, organism-based
Design: time 5760 min, dose 10 mg/kg, route ig
Conditions: in vivo, po
Readout kind: AUC(0-t) at 96 h (ng·h/mL)
Give the quantity in ng·h/mL, number only.

input: # lookup: AUC(0-t) at 96 h of O=C(O)C1(c2ccc(-c3cc(Cl)cc(Cl)c3)c(F)c2)CC1
output: 1480

###

pIC50: −log10 of the molar value.
pIC50, Aldo-keto reductase family 1 member B1 (Homo sapiens): measured values

input: Give its pIC50 value. Item: O=C(O)C1(c2ccc(-c3cc(Cl)cc(Cl)c3)c(F)c2)CC1
output: < 5.00

input: I would be grateful if you could share the reported pIC50 for CC(C(=O)O)c1ccc(-c2ccccc2)c(F)c1 (stereo not drawn) [FLURBIPROFEN] .
output: < 5.00

input: So what's the measured pIC50 for this one? COc1cccc(-c2ccc(C(C)C(=O)O)cc2C(F)(F)F)c1 (racemic)
output: < 5.00

###

Test: Metabolic stability in liver microsomes (unknown origin) assessed as clearance
Type: ADME, Microsome
Details: read-out: CLH
Readout kind: CLint scaled
Number first, unit second.

input: Given O=C(O)C1(c2ccc(-c3cc(Cl)cc(Cl)c3)c(F)c2)CC1 , state its recorded CLint scaled.
output: 4.17 mL/min/kg

###

Read-out record for Aldo-keto reductase family 1 member B10 (Homo sapiens, UniProt O60218): IC50
The reply should be a number in µM, with the unit left off.

input: Look up IC50 for this compound: CCC(C(=O)O)c1ccc(-c2ccc(C)c(F)c2)c(C(F)(F)F)c1 (racemic)
output: 4.16

input: Which IC50 value is on record for Cc1ccc(-c2ccc(C3(C(=O)O)CC3)cc2F)cc1F ?
output: 5.56

input: Please give the measured IC50 for this compound: CCC(C(C)=O)c1ccc(-c2cc(Cl)cc(Cl)c2)c(C(F)(F)F)c1 (racemic)
output: 2.29
